Please go through the items and note down their pIC50.
Test: Inhibition of alpha-glucosidase (unknown origin) assessed as hydrolysis of pNP-alpha-Glu into pNP measured for 10 mins by spectrophotometric analysis
Design: species or system Homo sapiens
pIC50: −log10 of the molar value.

Some compounds with recorded pIC50:
MOLECULAR STRING | VALUE TYPE | RESULT
O=[N+]([O-])OCC(CO[N+](=O)[O-])O[N+](=O)[O-] | pIC50 | < 3.74
CC(=O)Oc1cc(OCCCCO[N+](=O)[O-])cc2oc(-c3ccccc3)cc(=O)c12 | pIC50 | < 4.00

Could you tell me which pIC50 is on file for CC(=O)Oc1cc(OCCCCCCO[N+](=O)[O-])cc2oc(-c3ccccc3)cc(=O)c12 ? < 4.00
